- System: SARS2
- Format: cell-based, SARS-CoV-2
- Experimental conditions: Average of Exp 1-3, n 9, 1 uM
Lab note: compare Infection Data, Average, Mean with 80%, writing yes if less and no if equal or more.

{"Compound": "Cc1ccc(CN(CCN(C)C)Cc2cc(C#CCO)cs2)s1", "Group label": "no"}
{"Compound": "CCN(CC)CCN(Cc1ccc(C)o1)Cc1cccs1", "Group label": "yes"}
{"Compound": "CCOc1cccc(CNCCc2ccccc2F)c1OCC(O)CN1CCN(C)CC1 (stereo not shown)", "Group label": "yes"}
{"Compound": "OC(COc1c(CNCCc2ccccc2F)cccc1N1CCNCC1)CN1CCCC1 (stereo not shown)", "Group label": "yes"}
{"Compound": "Cc1cc(CN(CCN(C)C)Cc2ccsc2)oc1C", "Group label": "no"}

Now turn to the next compound.
Task: Consider CCN(CC)CCN(Cc1ccccc1)Cc1ccc(C)o1 . Does its Infection Data, Average, Mean lie strictly below 80%?
Output: no

---

- System: cells (nuclei count)
- Experimental conditions: 5 uM; average of Exp 1-3 (SMW475, SMW477, SMW478); n 9
Result type: Toxicity Data: Average, Mean
State the value, then name its unit.

{"Compound": "Cc1csc(CN(CCN(C)C)Cc2ccco2)c1", "Test value": "89.17%"}
{"Compound": "CN(C)CCN(Cc1ccsc1)Cc1cccc(-c2ccsc2)c1", "Test value": "116.85%"}
{"Compound": "COc1ccc(CNCCc2ccccc2F)c(OCC(O)CN2CCN(C)CC2)c1 (racemic) [UMB18G]", "Test value": "151.57%"}
{"Compound": "Cc1cc(CN(CCN(C)C)Cc2ccco2)sc1Br", "Test value": "104.00%"}

Task: Sample Cc1cc(CN(CCN(C)C)Cc2ccncc2)sc1Br — what was its Toxicity Data: Average, Mean?
Output: 103.93%

---

- System: SARS2
- Assay type: cell-based, SARS-CoV-2
- Experimental conditions: SARS2, 25 μM; 100=DMSO control
Can you tell me Screening data (Relative infection to DMSO controls) Average 25 μM for the items I'm about to list?
Answers are plain numbers.

Use the examples below as a reference point.
{"Compound": "CCN(CC)CCN(Cc1ccccn1)Cc1ccc(C)o1 [SILCS36]", "Target": "SARS2", "Test value": 57.44}
{"Compound": "CCN(CC)CCN(Cc1ccccn1)C(=O)c1cccs1 [SILCS37]", "Target": "SARS2", "Test value": 102.13}
{"Compound": "COc1ccc(C2NC(=O)NC(C)=C2C(=O)NCC2CCCCC2)cc1OC (stereo not shown) [SILCS63]", "Target": "SARS2", "Test value": 118.04}

Go through the list and state Screening data (Relative infection to DMSO controls) Average 25 μM for each entry.
1. CC1=C(C(=O)NCC2CCC2)C(c2cccs2)NC(=O)N1 (stereo not shown) [SILCS62]
2. CC1=C(C(=O)NCC2CCCCC2)C(c2cc(C)c(Br)s2)NC(=O)N1 (stereo not shown) [SILCS68]

Output:
[51.41, 110.69]

Go through the list and state Screening data (Relative infection to DMSO controls) Average 25 μM for each entry.
1. COc1ccc(CNCCc2ccccc2F)c(OCC(O)CN2CCCC2)c1 (racemic) [SILCS43]
2. Cc1cc(CN(CCN(C)C)Cc2ccncc2)sc1Br [SILCS14]
3. CN(C)CCCN(Cc1cccs1)C(=O)c1cccs1 [SILCS40]

Output:
1: 6.12; 2: 14.65; 3: 141.44

Go through the list and state Screening data (Relative infection to DMSO controls) Average 25 μM for each entry.
1. CCCCCCCCNC(=O)C1=C(C)NC(=O)NC1c1ccc(OC)c(OC)c1 (stereo not shown) [SILCS65]
2. COc1ccc(CNCCc2ccccc2F)c(OCC(O)CN2CCOCC2)c1 (stereo not shown) [SILCS49]

Output:
[133.09, 27.11]

---

- Test system: cells (nuclei count)
- Experimental conditions: 1 μM; toxicity data; 100=DMSO control
Result type: Relative cell count to DMSO controls, Average 1 μM

Use the examples below as a reference point.
{"Compound": "CN1CCN(CC(O)COc2cccc(N3CCCCC3)c2CNCCc2ccccc2F)CC1 (stereo not shown)", "Test value": 131.94}
{"Compound": "Cc1cc(CN(CCN(C)C)Cc2ccsc2)oc1C", "Test value": 109.07}
{"Compound": "CCN(CC)CCN(Cc1cc(C)c(Br)s1)Cc1cc(C)c(Br)s1", "Test value": 107.69}
{"Compound": "COC(=O)c1csc(CN(CCN(C)C)Cc2ccsc2)c1", "Test value": 113.44}

Go through the list and state Relative cell count to DMSO controls, Average 1 μM for each entry.
1. CCN(CC)CCN(Cc1ccc(C)o1)Cc1cccs1
2. Cc1ccc(CN(CCN(C)C)Cc2ccccc2)o1
3. Cc1cc(CN(CCN(C)C)Cc2ccco2)sc1Br
4. COC(=O)c1csc(CN(CCN(C)C)Cc2ccccc2)c1

Output:
[133.02, 111.01, 105.96, 108.24]

Go through the list and state Relative cell count to DMSO controls, Average 1 μM for each entry.
1. CN(C)CCN(Cc1ccccc1)Cc1cc(C#CCO)cs1
2. CCN(CC)CCN(Cc1ccccc1)Cc1ccc(C)o1
3. CN(C)CCN(Cc1ccsc1)Cc1cccc(-c2ccsc2)c1
4. CN(C)CCCN(Cc1cccs1)C(=O)c1cccs1
5. CN(C)CCN(Cc1cocn1)Cc1cccs1
6. COc1ccc(-c2[nH]ncc2C(=O)NCC2CCC2)cc1OC
7. COC(=O)c1csc(CN(CCN(C)C)Cc2cccs2)c1
8. CCN(CC)CCN(Cc1cccs1)C(=O)c1cccs1

Output:
1. 113.75
2. 123.69
3. 96.85
4. 86.49
5. 105.31
6. 100.58
7. 104.12
8. 102.47

Go through the list and state Relative cell count to DMSO controls, Average 1 μM for each entry.
1. Cc1cc(CN(CCN(C)C)Cc2ccncc2)sc1Br
2. CN(C)CCN(Cc1ccsc1)Cc1ccc(CO)o1
3. CC1=C(C(=O)NCc2ccccc2)C(c2scc3c2OCCO3)NC(=O)N1 (stereo not shown)
4. COc1ccc(CNCCc2ccccc2F)c(OCC(O)CN2CCOCC2)c1 (stereo not shown)
5. COCC1=C(C(=O)NCC2CCC2)C(c2cccs2)NC(=O)N1 (stereo not shown)

Output:
[105.49, 105.37, 98.81, 104.43, 120.34]

---

Can you tell me Screening data (Relative infection to DMSO controls) Average 5 μM for the items I'm about to list?
- Test system: SARS2
- Assay type: cell-based, SARS-CoV-2
- Experimental conditions: SARS2, 5 μM; 100=DMSO control
One number for each entry.

{"Molecule": "Cc1cc(CN(CCN(C)C)Cc2ccco2)sc1Br", "Target": "SARS2", "Test value": 111.13}

Go through the list and state Screening data (Relative infection to DMSO controls) Average 5 μM for each entry.
1. CCOc1cccc(CNCCc2ccccc2F)c1OCC(O)CN1CCN(C)CC1 (stereo not shown)
2. COC(=O)c1csc(CN(CCN(C)C)Cc2cccs2)c1
3. CC1=C(C(=O)NCC2CCCCC2)C(c2cccs2)NC(=O)N1 (stereo not shown)

Output:
1. 48.45
2. 64.83
3. 61.17

Go through the list and state Screening data (Relative infection to DMSO controls) Average 5 μM for each entry.
1. CN(C)CCN(Cc1ccsc1)Cc1ccc(CO)o1
2. CN(C)CCN(Cc1ccccc1)Cc1cc(C#CCO)cs1
3. COc1ccc(CNCCc2ccccc2F)c(OCC(O)CN2CCCC2)c1 (racemic)
4. COCC1=C(C(=O)NCC2CCC2)C(c2cccs2)NC(=O)N1 (stereo not shown)
5. COc1ccc(CNCCc2ccccc2F)c(OCC(O)CN2CCN(C)CC2)c1 (racemic) [UMB18G]
6. COC(=O)c1csc(CN(CCN(C)C)Cc2ccccc2)c1

Output:
[120.66, 104.84, 6.50, 55.85, 31.21, 84.81]

---

Can you tell me Percentage Inhibition Average 1 μM for the items I'm about to list?
- Tested on: SARS2
- Type: cell-based, SARS-CoV-2
- Experimental conditions: SARS2, 1 μM
One number for each entry, in %.

{"Compound": "COc1ccc(CNCCc2ccccc2F)c(OCC(O)CN2CCN(C)CC2)c1 (stereo not drawn) [SILCS46]", "Test value": 27.88}

Go through the list and state Percentage Inhibition Average 1 μM for each entry.
1. Cc1ccc(CN(CCN(C)C)Cc2ccccc2)o1
2. COc1ccc(CNCCc2ccccc2F)c(OCC(O)CN2CCN(C)CC2)c1 (racemic) [SILCS41]
3. CCN(CC)CCN(Cc1ccncc1)C(=O)c1cccs1
4. CC1=C(C(=O)NCC2CCC2)C(c2cccs2)NC(=O)N1 (stereo not drawn)
5. CN(C)CCCN(Cc1cccs1)C(=O)c1cccs1

Output:
1. 24.29
2. 51.68
3. 23.75
4. 31.86
5. −17.72
